System: Fibroblast
Experiment: Multiplex assay against human fibroblast
Type: toxicity, cell-based
Conditions: 12 h, 10 µM, compound concentration 10 uM, replicate 1
Population Pyknosed Nuclei (%) listing for selected compounds.
outcome measure: Population Pyknosed Nuclei (%)

[[record]]
compound = "CCCn1c(=O)c2[nH]c(C3CCCC3)nc2n(CCC)c1=O"
target_of_assay = "Fibroblast"
outcome_measure = "Population Pyknosed Nuclei (%)"
reported_measurement = 17

[[record]]
compound = "CC[C@H]1OC(=O)[C@H](C)[C@@H](O[C@H]2C[C@@](C)(OC)[C@@H](O)[C@H](C)O2)[C@H](C)[C@@H](O[C@@H]2O[C@H](C)C[C@H](N(C)C)[C@H]2O)[C@@]2(C)CC(C)=C(O2)[C@H](C)[C@@H](O)[C@]1(C)O"
target_of_assay = "Fibroblast"
outcome_measure = "Population Pyknosed Nuclei (%)"
reported_measurement = 12

[[record]]
compound = "N[C@@]1(C(=O)O)CO[C@H]2[C@H](C(=O)O)[C@H]21 [LY-379268]"
target_of_assay = "Fibroblast"
outcome_measure = "Population Pyknosed Nuclei (%)"
reported_measurement = 14

[[record]]
compound = "O=C(NCCO)c1cccc(-c2cc(Nc3ccc(OC(F)(F)F)cc3)ncn2)c1"
target_of_assay = "Fibroblast"
outcome_measure = "Population Pyknosed Nuclei (%)"
reported_measurement = 22

[[record]]
compound = "C[C@H](NC(=O)c1c(C(F)F)nn(C)c1Oc1cccc(C(F)(F)F)c1)c1ccc(C(=O)O)cc1 [PALUPIPRANT]"
target_of_assay = "Fibroblast"
outcome_measure = "Population Pyknosed Nuclei (%)"
reported_measurement = 16

[[record]]
compound = "Cc1ccc(/C(=C\\CN2CCCC2)c2ccccn2)cc1 [TRIPROLIDINE]"
target_of_assay = "Fibroblast"
outcome_measure = "Population Pyknosed Nuclei (%)"
reported_measurement = 20

[[record]]
compound = "CN(C)CCCc1cc(C(=O)Nc2ccc(-c3ccncc3)cc2)ccc1O.Cl.Cl"
target_of_assay = "Fibroblast"
outcome_measure = "Population Pyknosed Nuclei (%)"
reported_measurement = 7

[[record]]
compound = "O=C(NCC(=O)N1CC[C@H](N[C@H]2CC[C@@](O)(c3ccc(-c4ncccn4)cn3)CC2)C1)c1cccc(C(F)(F)F)c1 [PF-4136309]"
target_of_assay = "Fibroblast"
outcome_measure = "Population Pyknosed Nuclei (%)"
reported_measurement = 12

